Experiment: soluble on expression in E. coli; label from the status in PepcDB or PDB records

RESIDUE_STRING | soluble on expression in E. coli
MIEIATSPATTTLVIAGDLDLAERDQFPEIAARVVGLRRQLLVIDMCRVTFMDSTGAAFLISLADSGRKRGGATVLRGCDDRDLFVLEVCGALELFRIDPDHACAPKTPATGVPAVEERPGRTR | not soluble
VAIDYTRRPSSPAAPQGGVSLSKVTLSKAAPSVSLTKSGERQGAMRVNLNWSTGATPQPKKTGFFAKLAAAAGGNNGIDLDLGCLYELADGSKGVVQALGNSFGSLQAPPFIKLDADDRTGTVTGGENLHINLDRPEMFKRILIFAMIYDGAPNWAAVDGVVTLYPTSGPEVEVRLDTSNSSARICAIAMLQNTGQGITVTREVKYIEGSQADLDKTYSWGMKWAAGRK | not soluble
GSHMASRTPKKLSNIALTKETRQSSTDYNGFSRLAVDGNKNGDYGHHSVTHTKEDSPSWWEIDLAQTEELEKLIIYNRTDAEIQRLSNFDIIIYDSNDYEVFTQHIDSLESNNLSIDLKGLKGKKVRISLRSAGIPLSLAEVEVYTYK | soluble
MGSDKIHHHHHHMSIPLAFIICTEPGRLESQSLMLASSIRKFCGNLKDTPIYSFHPRVGEPISHQTQEAFAALQVIHQQIPINQEFHEYYLANKPLVCAYAEQNIDAEILVFLDSDKCLFAEPTEFLLPENCNVRVRPEYGQGIGSTGSQDPQEWYWQRLYQVLGVKREIFVNTPIGNKRIRAYWNSGLVAVRRSAGIFTAWKENFTKVMHLDITPPQGIYFVEQSVLSVTLCALVDNIEHFSLNYSYPLPLHNRLSPELRLQDWDDITSIHYFNLFFYNDWNTQIKKLKKFNITSDKYKWLSQEVVRLNMSRTSVLHRYMLAIRRIEQKLQKFNIKINLSSLIEKTAKF | not soluble
MGSDKIHHHHHHMLSHRLQDTSLRYFLEVVRTGSLTEAAQRLNVTVSAVSRQVAALESWLGVPLFDRRPRGMVASAAGELLAAYALRNALEADRVVTEIDALQGLRRGRVRVASSAGFAIEFLPRAIADFRERYPGLHFHVRVAPPAEVTGIVLHGDADIGITYSRAAEQGIRVEHRQAAPVIAIMRPDHALARFRSITLSQMLPYPLALPEGDNTVRQLFDIACGERGVAFEPVLVSNQFETLTSFVLHGGGLSISGGVTVGDRLRRGELHAATIRERGMKSRAIELQTLAGRTLPEGVRTFLGFVRDRLVEEAGIGS | not soluble
MYSKILGTGSYLPSQVRTNADLEKMVETSDEWIVARTGIRERRIAADNETVADMAFFAAQNAINMAGIDKHDIDMIIVATTSASHTFPSAACQVQGKLGIKGCPAFDLAAACSGFMYALSIADQHVKSGMCKHVLVIGADALSKTCDPTDRSTIILFGDGAGAVVVGASNEPGILSTHIHADGEFGDLLSLEVPVRGGDSDKWLHMAGNEVFKVAVTQLSKLVVDTLKANNMHKSELDWLVPHQANYRIISATAKKLSMSLDQVVITLDRHGNTSAATVPTALDEAVRDGRIQRGQMLLLEAFGGGFTWGSALVKF | not soluble
MGSDKIHHHHHHMTKHPLKSLAASVRAAIADPARTTFVGSDANPRFELFHAASSLCSQKVRTVLFEKQLPYRSNDMKILSSMGPDGVVPAEHYHAPYVGLRLIAGEEIGREFVSGYSGRTSVQTEGFDPCVVPLLVDYEASRVIADSRRICCYLDAVSRNPVQLVPEDADARALVMQQVDIVDRIPNGTLLYGFHPDADLRPEALRTVMESVYDYKVAALKAMIDANADNAELVSAYRAKIAKEQGGKSVRHDAALQRAARDHVAVLLADLDRLLGTSSPYLLGPHFSLGDVLWGVNLTRLAYLGLASMWKDRPNVIRYVNALLTRPSLRKEAVRATMDSMPPSRYFDVVSGTAEVASM | not soluble
MSLKATYSMLSQVTFPLAEAGYYVVPVALADETFRQNGLTSAGDVHQVSPAKLREIYGADAALYVTVSDYGTRYMVISSATIVTASAKLVDLRSGTTLWTGSATASSEEGNGGNNGGLVGMLITAAVKQIINSSVEDAGYPIAGMTSARLLSAGQPGGLLYGPRSPRYGSDEGHHHHHH | soluble
KKDFTWSSTVTFTANKEKIKSLIEGQDMMFNAKKGDMVFKVGEGVGSFYRYKVLGIWQYSEKETAALFGCEPGDIKLDLPSVKKDGNGYYYMNPEGERVDITAENPYGVRADYDRQVIGRNTPDWTLGFKNNFRYKDFDLSVFLYARWGQMMNYGSVIGKYSPNPDYNIPTYFTYYDKTIEADQDVLFYAIDKSKDRSAYEGYDSMYYVDGSFFKLKNVTLGYTLPGKLTKRFGISNLRVYATMTNLFTYSPNKYVKNYDPEMNGSINFPLSRDCIFGLNLTF | not soluble
MEHKEVVLLLLLFLKSGQGEPLDDYVNTQGPSLFSVTKKQLGAGSREECAAKCEEDKEFTCRAFQYHSKEQQCVIMAENRKSSIIIRMRDAVLFEK | not soluble
MKLALTLEADSVNVQALNMGRIVVDVDGVNLSELINKVSENGYSLRVVDKSDQHATSTPPPLTTLTCIRCSTAHITETDNAWLYSLSHQTNDDGETEWIHFTGSGYLLRTDAWSYPVLRLKRLGLSRTFRRLVVTLTRRYGVSLIHLDAGAECLPGFPTFDW | not soluble
MSPSQDPSLENYRAIADGIATLFFPHAEVVLHDLRSQRVDYIANNLSKREVGDDSALEDMLEGDSDERNIGPYEKLNWDGQKIRSVSTVLRDSAGQPLAVLCINLNISLFESAKAALDLFLSPSKLIPQPDALFRDDWQERINTFLHGWLRQRQLGLNLLTREHKRELVLALHAEGAFKGKSAANYVANVLNMGRATVYKHLKELKEGGD | not soluble
